Origin of values: BigSolDB 2.1

conditions: in acetonitrile, 318.15 K

[
  {
    "Given Smiles": "CCOc1ccccc1C(N)=O",
    "solubility (mole fraction)": 0.0285
  }
]

###

conditions: in methanol, 303.15 K

[
  {
    "Given Smiles": "CCOc1ccccc1C(N)=O",
    "solubility (mole fraction)": 0.0252
  }
]

###

conditions: in ethanol, 303.15 K

[
  {
    "Given Smiles": "CCOc1ccccc1C(N)=O",
    "solubility (mole fraction)": 0.0198
  }
]

###

conditions: in isopropanol, 298.15 K

[
  {
    "Given Smiles": "CCOc1ccccc1C(N)=O",
    "solubility (mole fraction)": 0.0125
  }
]
